The values you see were collected from patent US20100233714.

System: IgG3, monoclonal human (Homo sapiens)
particulars: ultrafiltration, Picogreen; 37.5 mM NaCl, 3.75 mM Na citrate, pH 6.0
measured.metric: Ka

// solved cases for Ka follow
construct.sequence | Ka
TGGGCCGGTAACGGGTTACCGTAAGGTCCC [RAD10] | 6.62 log10 M-1
TTTTCGCGCGTACGCGCGCGAA [RAD15] | 6.22 log10 M-1
CTCTCTCTTTTTCTCTCTCTTTTTGAGAGAG [RAD9] | 6.62 log10 M-1

Entry TTTTCGCGCGTTAACGCGCGAA [RAD16] ; assay system IgG3, monoclonal human (Homo sapiens); Ka recorded at 6.31 log10 M-1
